Cited source: ChEMBL document CHEMBL4382292

Test: Apparent permeability in MDCK cells
Assay type: ADME, cell-based, Canis lupus familiaris
Settings: dog
measurement.label: Papp

>>> recorded_value("CC(C)(C)c1ccc(N2C(=O)c3ccccc3[C@H](C(=O)O)[C@H]2c2ccc3c(c2)OCCO3)cc1Cl")
"9 ×10⁻⁶ cm/s"
>>> recorded_value("CC(C)(C)c1ccc(N2C(=O)c3cc(F)ccc3[C@H](CC(=O)O)[C@H]2c2ccc3c(c2)OCCO3)cc1Cl")
"18 ×10⁻⁶ cm/s"

---

Test: Intrinsic clearance in rat hepatocytes after 120 mins by LC-MS/MS analysis
Type: ADME, cell-based, Hepatocyte
Conditions: read-out: CLH
# key: entry, value: CLint scaled
measurement.label: CLint scaled (mL/min/kg)

>>> recorded_value("CC(C)(C)c1ccc(N2C(=O)c3cc(F)ccc3[C@H](CC(=O)O)[C@H]2c2ccc3c(c2)OCCO3)cc1Cl")
240
>>> recorded_value("CC(C)(C)c1ccc(N2C(=O)c3ccccc3[C@H](C(=O)O)[C@H]2c2ccc3c(c2)OCCO3)cc1Cl")
158
